Test system: MRSA (2658 RCMB)
procedure.text: MIC against MRSA (2658 RCMB), broth dilution
Assay type: cell-based, Staphylococcus aureus
measurement.setup: Table 1; MRSA (2658 RCMB)
experimental.endpoint: MIC ± SD

Item CCCCc1ccc(-c2nc(C)c(-c3ccnc(N)n3)s2)cc1 [Compound 8] has what recorded MIC ± SD?
3.12 ± 0.10 µg/mL

***
Item CCCCc1ccc(-c2nc(C)c(-c3ccnc(NC(=N)N)n3)s2)cc1 [Compound 18] has what recorded MIC ± SD?
1.56 ± 0.10 µg/mL

Queued: CCCCc1ccc(-c2nc(C)c(-c3ccnc(NN)n3)s2)cc1 [Compound 17]
0.40 ± 0.0 µg/mL

Queued: CCCCc1ccc(-c2nc(C)c(-c3ccnc(-c4cccnc4)n3)s2)cc1 [Compound 13]
17.2 ± 0.4 µg/mL

Queued: CCCCc1ccc(-c2nc(C)c(-c3ccnc(N=C(N(C)C)N(C)C)n3)s2)cc1 [Compound 19]
>25 µg/mL

---

Test system: MRSA (2658 RCMB)
procedure.text: MIC against MRSA (2658 RCMB), broth dilution
Format: cell-based, Staphylococcus aureus
measurement.setup: Staphylococcus aureus; Table 1; MRSA (2658 RCMB); read-out: MIC ± SD
Below is a list of entries, each paired with its recorded MIC value.

Item `Cc1nc(-c2ccc(/C=C/C3CCCCC3)cc2)sc1-c1ccnc(N)n1` has what recorded MIC?
3.12 µg/mL

Queued: `CCCCc1ccc(-c2nc(C)c(-c3ccnc(-n4cccn4)n3)s2)cc1`
> 25 µg/mL

Queued: `Cc1nc(-c2ccc(C3=CCCCCC3)cc2)sc1-c1ccnc(N)n1`
3.12 µg/mL

Queued: `Cc1nc(-c2ccc(-c3ccsc3)cc2)sc1-c1ccnc(N)n1`
6.25 µg/mL

***
Item `CCCCc1ccc(-c2nc(C)c(-c3ccnc(NC(=N)N)n3)s2)cc1` has what recorded MIC?
1.56 µg/mL

---

Tested on: MRSA (2658 RCMB)
procedure.text: MIC against MRSA (2658 RCMB), broth dilution
Assay type: cell-based, Staphylococcus aureus
measurement.setup: Staphylococcus aureus; Table 1; MRSA (2658 RCMB); read-out: MIC ± SD
Below is a list of entries, each paired with its recorded MIC value.

Item Cc1nc(-c2ccc(C3=CCCCC3)cc2)sc1-c1ccnc(N)n1 [Compound 29] has what recorded MIC?
0.78 µg/mL

Queued: CCCCc1ccc(-c2nc(C)c(-c3ccnc(NN)n3)s2)cc1 [Compound 17]
0.4 µg/mL

Queued: CCCCc1ccc(-c2nc(C)c(-c3ccn4ncnc4n3)s2)cc1 [Compound 16]
> 25 µg/mL

Queued: Cc1nc(-c2ccc(C=C3CCCC3)cc2)sc1-c1ccnc(N)n1 [Compound 32]
1.17 µg/mL

Could you now look at the following compound, please?
Item Cc1nc(-c2ccc(C3=CCC(C)C3)cc2)sc1-c1ccnc(N)n1 (centres unmarked) [Compound 28] has what recorded MIC?
3.8 µg/mL

---

procedure.text: Plasma pharmacokinetics after single oral dose in rats
Type: in vivo, Sprague-Dawley (SD) rats
measurement.setup: male, Sprague-Dawley, rat, plasma, po; text b112; SD rats, 50 mg/Kg orally; read-out: in vivo mean residence time (MRT)
experimental.endpoint: MRT

Item `CCCCc1ccc(-c2nc(C)c(-c3ccnc(NN)n3)s2)cc1` has what recorded MRT?
~8 h

---

Below is a list of entries, each paired with its recorded melting point value.
Report the value in °C with no unit label.

Sample answers from the record:
Item `Cc1nc(-c2ccc(C3=CCCCCC3)cc2)sc1-c1ccnc(N)n1` has what recorded melting point?
164

Queued: `Cc1nc(-c2ccc(C3=CCCC3)cc2)sc1-c1ccnc(N)n1`
160.6

Queued: `CCCCc1ccc(-c2nc(C)c(-c3ccnc(NC(=N)N(C)C)n3)s2)cc1`
153.7

Queued: `CCCCc1ccc(-c2nc(C)c(-c3ccnc(-n4cccn4)n3)s2)cc1`
163.7

***
Item `Cc1nc(-c2ccc(/C=C/C3CCCC3)cc2)sc1-c1ccnc(N)n1` has what recorded melting point?
180.7

Queued: `Cc1nc(-c2ccc(C=C3CCCC3)cc2)sc1-c1ccnc(N)n1`
143

Queued: `Cc1nc(-c2ccc(C=C3CCCCC3)cc2)sc1-c1ccnc(N)n1`
165

Queued: `CCCCc1ccc(-c2nc(C)c(-c3ccnc(N)n3)s2)cc1`
159

Queued: `Cc1nc(-c2ccc(C3=CCCCCCC3)cc2)sc1-c1ccnc(N)n1`
188

Queued: `CCCCc1ccc(-c2nc(C)c(-c3ccnc(NC#N)n3)s2)cc1`
118

Queued: `CCCCc1ccc(-c2nc(C)c(-c3ccnc(N4CCCC4)n3)s2)cc1`
153.7

Queued: `CCCCc1ccc(-c2nc(C)c(C(=O)/C=C/N(C)C)s2)cc1`
105.4

Queued: `Cc1nc(-c2ccc(-c3ccco3)cc2)sc1-c1ccnc(N)n1`
209.3

---

System: VRS10 (VRSA)
procedure.text: MIC/MBC S. aureus strains (Table 8)
Format: cell-based
measurement.setup: Staphylococcus aureus; Table 8; VRS10 (VRSA); read-out: MBC
Source text: […]
experimental.endpoint: MBC

Sample answers from the record:
Which measured MBC belongs to `Cc1nc(-c2ccc(C(C)(C)C)cc2)sc1-c1ccnc(NC(=N)c2cccnc2)n1` , tested on VRS10 (VRSA)?
4 µg/mL

Queued: `Cc1nc(-c2ccc(C(C)(C)C)cc2)sc1-c1ccnc(NC(=N)N(C)C)n1`
8 µg/mL

Queued: `Cc1nc(-c2ccc(C(C)(C)C)cc2)sc1-c1ccnc(NC(=N)c2ccccn2)n1`
4 µg/mL

Could you now look at the following compound, please?
Which measured MBC belongs to `CC(=O)NC[C@H]1CN(c2ccc(N3CCOCC3)c(F)c2)C(=O)O1` , tested on VRS10 (VRSA)?
64 µg/mL

---

System: MRSA NRS385
procedure.text: MIC/MBC S. aureus strains (Table 8)
Assay type: cell-based
measurement.setup: Staphylococcus aureus
Below is a list of entries, each paired with its recorded MIC value.

Sample answers from the record:
Item `Cc1nc(-c2ccc(C(C)(C)C)cc2)sc1-c1ccnc(NC(=N)c2ccccn2)n1` has what recorded MIC?
4 µg/mL

Queued: `Cc1nc(-c2ccc(C(C)(C)C)cc2)sc1-c1ccnc(NC(=N)N(C)C)n1`
8 µg/mL

Queued: `Cc1nc(-c2ccc(C(C)(C)C)cc2)sc1-c1ccnc(NC(=N)c2cccnc2)n1`
4 µg/mL

Could you now look at the following compound, please?
Item `Cc1nc(-c2ccc(C(C)(C)C)cc2)sc1-c1ccnc(NC(=N)N2CCOCC2)n1` has what recorded MIC?
4 µg/mL

---

procedure.text: Plasma pharmacokinetics after single oral dose in rats
Format: in vivo, Sprague-Dawley (SD) rats
measurement.setup: male, Sprague-Dawley, rat, plasma; Table 6; single oral dose (30 mg/Kg) to rats
experimental.endpoint: Tmax (h)
Report the value in h with no unit label.

Item `CCCCc1ccc(-c2nc(C)c(-c3ccnc(NN)n3)s2)cc1` has what recorded Tmax?
4.67

---

Test system: VRS12 (VRSA)
procedure.text: MIC/MBC S. aureus strains (Table 8)
Format: cell-based
measurement.setup: Staphylococcus aureus; Table 8; VRS12 (VRSA); read-out: MBC
Below is a list of entries, each paired with its recorded MBC value.
Report the value in µg/mL with no unit label.

Sample answers from the record:
Which measured MBC belongs to Cc1nc(-c2ccc(C(C)(C)C)cc2)sc1-c1ccnc(NC(=N)N(C)C)n1 [Compound 58] , tested on VRS12 (VRSA)?
8

Queued: CC(=O)NC[C@H]1CN(c2ccc(N3CCOCC3)c(F)c2)C(=O)O1 [Linezolid, linezolid]
64

Queued: Cc1nc(-c2ccc(C(C)(C)C)cc2)sc1-c1ccnc(NC(=N)c2ccccn2)n1 [Compound 64]
4

***
Which measured MBC belongs to Cc1nc(-c2ccc(C(C)(C)C)cc2)sc1-c1ccnc(NC(=N)c2cccnc2)n1 [Compound 63] , tested on VRS12 (VRSA)?
4

---

procedure.text: Plasma pharmacokinetics after single oral dose in rats
Format: in vivo, Sprague-Dawley (SD) rats
measurement.setup: male, Sprague-Dawley, rat; Table 6; single oral dose (30 mg/Kg) to rats, plasma
experimental.endpoint: Cmax (ng/mL)
Report the value in ng/mL with no unit label.

Item CCCCc1ccc(-c2nc(C)c(-c3ccnc(NN)n3)s2)cc1 [Compound 17] has what recorded Cmax?
9330

---

Below is a list of entries, each paired with its recorded MIC value.
System: MRSA (2658 RCMB)
procedure.text: MIC against MRSA (2658 RCMB), broth dilution
Type: cell-based, Staphylococcus aureus
measurement.setup: Staphylococcus aureus; Table 1; MRSA (2658 RCMB); read-out: MIC ± SD
Report the value in µg/mL with no unit label.

Which measured MIC belongs to CCCCc1ccc(-c2nc(C)c(-c3ccnc(N)n3)s2)cc1 [Compound 8] , tested on MRSA (2658 RCMB)?
3.12

Queued: Cc1nc(-c2ccc(C3=CCCCCCC3)cc2)sc1-c1ccnc(N)n1 [Compound 31]
5.6

Could you now look at the following compound, please?
Which measured MIC belongs to CCCCc1ccc(-c2nc(C)c(-c3ccnc(NC(=N)N(C)C)n3)s2)cc1 [Compound 11] , tested on MRSA (2658 RCMB)?
0.78
